target: T1, PSMA Fab (biotinylated (site not stated)); assay: clonal phage ELISA on biotinylated PSMA Fab captured on neutravidin plates, anti-M13 HRP detection;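 also: crude clonal phage supernatants tested, before phage were added, wells were pretreated with PSMA antigen in blocking buffer or with blocking buffer only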
T1 construct: also called Anti-PSMA Fab; 006 PSMA Fab
Where no end group is shown, it is not given here.
Phage binding ELISA signal, Anti-PSMA Fab overview
measured.property: Phage binding ELISA signal, Anti-PSMA Fab

binder	measured
HEKWCIPPWMCEAN (cysteine pairing not given here; also: fused to phage pIII (clonal phage display), Clonal phage of the peptide-180 library; not shown: fused to pIII of the bacteriophage) [Phage-2615]	1.01
LHKLCIPEWMCEYY (cysteine pairing not given here; also: displayed on phage as pIII fusion, linker and pIII sequence not given here, Clonal phage of the peptide-180 library; not shown: fused to pIII of the bacteriophage) [Phage-2608]	1.03

Data origin: patent US20260242478A1
